# SYSTEM UNDER TEST: Angiotensin-converting enzyme (Oryctolagus cuniculus) (UniProt P12822)
# Sequence (whole entry): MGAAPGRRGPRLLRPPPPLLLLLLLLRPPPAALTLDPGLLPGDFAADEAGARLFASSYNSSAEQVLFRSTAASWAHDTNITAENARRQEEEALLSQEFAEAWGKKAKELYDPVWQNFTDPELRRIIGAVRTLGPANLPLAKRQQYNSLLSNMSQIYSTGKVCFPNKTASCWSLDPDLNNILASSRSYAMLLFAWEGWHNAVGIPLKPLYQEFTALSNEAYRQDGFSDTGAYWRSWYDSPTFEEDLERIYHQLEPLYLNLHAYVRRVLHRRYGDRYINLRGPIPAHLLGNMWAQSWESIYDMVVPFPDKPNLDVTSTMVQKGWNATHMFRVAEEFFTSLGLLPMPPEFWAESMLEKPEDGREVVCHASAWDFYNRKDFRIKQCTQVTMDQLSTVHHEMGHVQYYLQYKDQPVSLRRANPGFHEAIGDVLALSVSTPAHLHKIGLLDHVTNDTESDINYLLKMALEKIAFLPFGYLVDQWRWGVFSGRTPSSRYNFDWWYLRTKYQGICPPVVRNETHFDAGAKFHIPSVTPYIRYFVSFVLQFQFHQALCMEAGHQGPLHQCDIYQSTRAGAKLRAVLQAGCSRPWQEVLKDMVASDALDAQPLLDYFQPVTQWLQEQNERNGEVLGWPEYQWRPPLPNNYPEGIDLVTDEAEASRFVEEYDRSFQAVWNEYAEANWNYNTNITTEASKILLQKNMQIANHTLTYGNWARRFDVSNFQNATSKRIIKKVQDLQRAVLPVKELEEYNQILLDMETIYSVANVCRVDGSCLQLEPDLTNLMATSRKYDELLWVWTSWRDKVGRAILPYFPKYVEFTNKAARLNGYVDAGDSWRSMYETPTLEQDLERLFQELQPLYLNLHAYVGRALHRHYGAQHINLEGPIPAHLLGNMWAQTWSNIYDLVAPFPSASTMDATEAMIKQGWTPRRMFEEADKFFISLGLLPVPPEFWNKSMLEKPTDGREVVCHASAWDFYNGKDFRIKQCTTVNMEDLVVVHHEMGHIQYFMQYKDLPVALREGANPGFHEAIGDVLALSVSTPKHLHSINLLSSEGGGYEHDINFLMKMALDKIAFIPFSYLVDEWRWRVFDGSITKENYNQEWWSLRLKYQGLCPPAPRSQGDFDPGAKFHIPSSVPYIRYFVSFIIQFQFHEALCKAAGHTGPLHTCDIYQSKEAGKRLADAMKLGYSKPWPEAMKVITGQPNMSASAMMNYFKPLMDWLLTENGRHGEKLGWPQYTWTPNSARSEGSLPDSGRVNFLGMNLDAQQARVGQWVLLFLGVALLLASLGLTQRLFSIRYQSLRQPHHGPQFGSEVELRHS
# ASSAY NAME: Inhibition of rabbit lung ACE assessed as reduction in hippuryl-histidyl-leucine substrate at 3 uM by colorimetric assay
Calls of active or inactive are those of the source. The calls are words filed in the database; no cut-off is given here.
Hi! Could you answer with just one of these? active, inactive

| COMPOUND | ASSIGNED LABEL |
| --- | --- |
| CCCCc1nc(Cl)c(/C=C/C(=O)c2cccs2)n1C | active |
| CCCCc1nc(Cl)c(/C=C/C(=O)c2ccc(OC)cc2)n1C | active |
| CCCCc1nc(Cl)c(/C=C/C(=O)c2cccc(Br)n2)n1C | active |
| CCCCc1nc(Cl)c(C2CC(c3cccc4ccccc34)=NN2C(C)=O)n1C (stereo unspecified) | inactive |
| CCCCc1nc(Cl)c(/C=C/C(=O)c2cc(OC)c(OC)c(OC)c2)n1C | active |

Now consider the entry below.
Qu. Tell me the recorded outcome of this test for CCCCc1nc(Cl)c(/C=C/C(=O)c2ccccc2)n1C .
Ans. active

The reported numbers originate from ChEMBL document CHEMBL1811899.
